# TARGET_SYSTEM: T1, monomeric human CSF1R ectodomain protein (human, UniProt P07333 20-517)
# T1 construct: also called biotinylated monomeric human CSF1R
# PROCEDURE_DETAILS: SPR Biacore, IgG captured, monomeric CSF1R analyte
Kindly state koff for each of the entries shown.
I'd appreciate it if you wrote the number followed by its unit.

I would be grateful if you could share the reported koff for MH12 (antibody, human IgG4, V domains shown, Deimmunized MH5 derivative, human IgG4(S228P)/Ckappa IgG; also called mAb-4) VH: QVQLVQSGAEVKKPGSSVKVSCKASGYTFSSNYMIWVRQAPGQGLEWMGDINPYNGGANYAQKFQGRVTITADESTSTAYMELSSLRSEDTAVYYCAREGPYFSNLYVMDYWGQGTLVTVSS VL: EIVLTQSPATLSLSPGERATLSCRASQSVSYEGENYLNWYQQKPGQAPRSLIYAASDRATGIPARFSGSGSGTDFTLTISSPEPEDFAVYYCQLSNEDLLTFGGGTKVEIK .
0.000832 s⁻¹

Similarly, MH33 (antibody, human IgG4, V domains shown, Deimmunized MH5 derivative, human IgG4(S228P)/Ckappa IgG) VH: QVQLVQSGAEVKKPGSSVKVSCKASGYTFSSAYMIWVRQAPGQGLEWMGDINPYNGGANYAQKFQGRVTITADESTSTAYMELSSLRSEDTAVYYCAREGPYFSNLYVMDYWGRGTLVTVSS VL: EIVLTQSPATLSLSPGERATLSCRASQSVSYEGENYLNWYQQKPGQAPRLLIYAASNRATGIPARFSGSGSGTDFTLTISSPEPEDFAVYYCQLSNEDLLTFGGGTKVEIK ?
0.00144 s⁻¹

Field entry: MH11 (antibody, human IgG4, V domains shown, Deimmunized MH5 derivative, human IgG4(S228P)/Ckappa IgG) VH: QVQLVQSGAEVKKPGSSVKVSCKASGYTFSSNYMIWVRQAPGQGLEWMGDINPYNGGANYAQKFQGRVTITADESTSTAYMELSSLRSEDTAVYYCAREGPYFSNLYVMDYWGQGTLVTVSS VL: EIVLTQSPATLSLSPGERATLSCRASQSVSYEGENYLNWYQQKPGQAPRAAIYAASNRATGIPARFSGSGSGTDFTLTISSPEPEDFAVYYCQLSNEDLLTFGGGTKVEIK
0.00119 s⁻¹

# credit: patent US20210301026A1
